MEASUREMENT_TARGET: T1, monkey IL-23R-mouse Fc fusion protein (monkey; mouse)
T1 construct: extracellular domain; also called monkey IL-23R-Fc fusion protein
METHOD_NOTES: antigen ELISA, monkey IL-23R-Fc immobilized, HRP anti-mouse Ig, chemiluminescence
Here, each record is paired with measured EC50 data.
Kindly answer with a numeric value in µg/mL, unit omitted.

>>> observed_measurement("34-58 (chimeric) (antibody, V domains shown) VH: QVHLVQSGTEVRKPGASVKVSCKVSGYTLNELAIHWVRQAPGKGLEWMGGFDPEHGEIIYAQRFQGRITLPEDTSTDTAYMDLVNLRSEDTAVYFCTTEAAPFDYWGQGSLVIVSS VL: DIQMTQSPSTLSASVGDRVTITCRASQSLSNWLAWYQQKPGKAPKLLIYKASSLESGVPSRFSGSGSGTDFTLTISGLQPDDFATYYCQQYDIYPRTFGQGTKVEIKR")
0.013
>>> observed_measurement("25-3 (chimeric) (antibody, V domains shown) VH: QVQLQESGPGQVKPSQTLSLTCSVSGGSIDSGDHYWTWIRQHPGEVLEWIGYIYSSGHTYYSPSLKSRLTMSLDTSKNQFSLRLSSVTAADTAVYYCARVGDYEWFDTWGQGTLVTVSS VL: DIVMTQSPDSLAVSLGERATINCKSSQTILYPSNNMNYLGWYQQRAGQSPRLLIYWASTRESGVPDRFSGSGSGTDFTLTISSLQAEDVAVYYCQQYYSSLPTFGQGTKVEIKR")
0.028
>>> observed_measurement("32-28 (chimeric) (antibody, V domains shown) VH: QVHLVQSGTEVRKPGASVKVSCKVSGYTLNELAIHWVRQAPGKGLEWMGGFDPEHGEIIYAQRFQGRVTLPEDTSTDTAYLDLFNLRSEDTAVYFCATEAAPFDYWGQGTLVIVSS VL: DIQMTQSPSTLSASVGDRVTITCRASQSLSSWLAWYQQKPGKAPKLLIYKASSLESGVPSRFSGSGSGTDFTLTISSLQPDDFATYYCQQYDIYPRTFGQGTKVEIKR")
0.024
>>> observed_measurement("30-15 (chimeric) (antibody, V domains shown) VH: QVQLVQSGAEVKKPGASMKVSCKVSGYTLNELSIHWVRQAPGKGLEWMGGFDPEHGETVYAQNFQDRVTLTEDTSTDTSYMGLNNLRSDDTAVYYCAAESYGDYEFWGQGTLVTVSS VL: DIQMTQSPSSVSASVGDRVTITCRASQGINNWLAWYQQKPGKAPKVLIYTASSLQSGVPSRFSGSGSGTDFTLTISSLQPEDFATYYCQQANSHPWTFGQGTKVEIKR")
0.016

// below: EC50 requested for another binder
Task: Determine its reported EC50: 30-16 (chimeric) (antibody, V domains shown) VH: QVQVVQSGAEVKKPGASVKVSCKVSGYTLIELAIHWVRQVPGKGLEWMGGFDPEHGETIYAQKFQGRVTMTEDTSTDTAYMELNNLRSEDTAVYYCAILEAGDLDCWGQGTLVTVSS VL: DIQMTQSPSSVSASVGDRVTITCRASQGISNWLAWYQQKPGKAPKVLIYTASSLQSGVPSRFSGSGSGTDFTLTVSGLQPEDFGTYYCQQANSFPFTFGPGTKVDIKR
Output: 0.069
